target: Cannabinoid receptor 1 (Rattus norvegicus) (UniProt P20272); test: Agonist activity at rat CB1 receptor expressed in HEK293 cells assessed as inhibition of forskolin-stimulated cAMP level stimulated for 30 mins followed by Eu-cAMP tracer addition and measured after 60 mins relative to control; assay type: functional, cell-based; details: filed as agonist, time 90.0 min
Sequence (P20272 whole entry): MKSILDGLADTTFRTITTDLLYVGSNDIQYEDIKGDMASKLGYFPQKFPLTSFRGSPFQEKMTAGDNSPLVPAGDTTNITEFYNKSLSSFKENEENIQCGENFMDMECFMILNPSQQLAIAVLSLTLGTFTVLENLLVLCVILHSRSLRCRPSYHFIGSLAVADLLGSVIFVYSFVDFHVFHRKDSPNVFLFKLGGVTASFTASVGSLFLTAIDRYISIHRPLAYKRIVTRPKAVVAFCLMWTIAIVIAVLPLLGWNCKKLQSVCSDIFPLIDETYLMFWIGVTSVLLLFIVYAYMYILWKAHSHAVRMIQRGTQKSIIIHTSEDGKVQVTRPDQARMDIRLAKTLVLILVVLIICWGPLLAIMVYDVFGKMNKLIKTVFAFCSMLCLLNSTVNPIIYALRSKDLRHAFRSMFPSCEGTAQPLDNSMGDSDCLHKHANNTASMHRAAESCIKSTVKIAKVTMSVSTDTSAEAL
Measured Emax, listed per entry for reference.
READOUT_LABEL: Emax (%)

INSERT INTO results (smiles_str, number) VALUES
  ('CC1(C)Oc2cc(C34CC5CC(CC(CN=[N+]=[N-])(C5)O3)C4)cc(O)c2[C@@H]2C[C@H](O)CC[C@H]21', 87),
  ('CC1(C)Oc2cc(C34CC5CC(CC(CN=C=S)(C5)O3)C4)cc(O)c2[C@@H]2C[C@H](CO)CC[C@H]21', 94),
  ('CC1(C)Oc2cc(C34CC5CC(CC(CN=[N+]=[N-])(C5)O3)C4)cc(O)c2[C@@H]2C[C@H](CO)CC[C@H]21', 93),
  ('CC1(C)Oc2cc(C34CC5CC(CC(CN=C=S)(C5)O3)C4)cc(O)c2[C@@H]2C[C@H](O)CC[C@H]21', 88);
